Reference source for all entries: ChEMBL document CHEMBL4513216

measurement protocol: Toxicity liver stage against HepG2, at 10uM
Type: cell-based
Design: test concentration 10 uM, cell line HepG2-A16-CD81EGFP
condition notes: human, HepG2-A16-CD81EGFP cells; read-out: INHIBITION
Attribute: cytotoxicity at 10 µM
result type: cytotoxicity at 10 µM (%)

COc1cccc(-n2nnc(C(=O)N3CCCC3)c2C)c1: -5.41
Cc1nccn1-c1cccc(C2CCCN2)n1 (configuration not stated): 10.6
CCO[C@@H]1CC[C@H]2[C@H]1OCCN2C(=O)c1nn(C)c2ccccc12: -2.69
Cc1ccc(CN2C[C@@H]3COC[C@H](NS(C)(=O)=O)[C@@H]3C2)o1: 0.415
CCNS(=O)(=O)c1ccc(C)c(C(=O)N(CCC#N)Cc2ccco2)c1: 5.44
COC(C(=O)NCc1c(C)nc2cc(=O)[nH]n2c1C)c1ccccc1 (configuration not stated): 0.493
Cc1ccc2nc(NCCCN3CCCCCC3=O)n(C)c(=O)c2c1: 7.04
CCCOC(=O)C(C)Sc1nnnn1C1CCOCC1 (configuration not stated): 18.1
O=C(O)[C@@H]1CN(C(=O)CCCc2ccc(F)cc2)C[C@H]1C1CC1: 0.832
CC(C)Cn1nc2ccc(S(=O)(=O)N3CCC(C)CC3)cn2c1=O: 1.67
O=C(C1CCCCC1)N1C[C@H]2CNC[C@H]2C1: -11.9
Cc1nc2cc(O)nn2c(C)c1CCC(=O)N(C)CCC(C)C: -146
COc1cc(N2CC[C@H](O)[C@@H]2Cc2cnn(C)c2)ncn1: 1.72
COc1ccccc1CN1C[C@@H]2CN(C(C)=O)CCO[C@@H]2C1: -102
COc1cc(N2CCC3(CC2)CN(S(C)(=O)=O)c2ccccc23)ncn1: 12.8
Fc1cccc(N2CCCC3(C2)CN(c2cnccn2)CCO3)c1 (configuration not stated): 8.49
CCCN1CCC(CNC(=O)C2(c3ccccc3)CCC2)C1 (configuration not stated): -6.29

====

measurement protocol: Toxicity liver stage against HepG2, at 10uM
Format: cell-based
Set-up: test concentration 10 uM, cell line HepG2-A16-CD81EGFP
condition notes: human, HepG2-A16-CD81EGFP cells; read-out: INHIBITION
result type: cytotoxicity at 10 µM (%)

CCc1ccc(CNCC2CCN(CCO)CC2)cc1: -6.73
COc1ccc(CNc2cnn(CC(F)F)c2)cc1: -7.47
N#Cc1cc(S(N)(=O)=O)ccc1NC1CCc2c(F)cccc21 (stereo unspecified): -12.4
CCN(C)c1ncc2c(c1C(=O)O)CCN(C1CCOC1)C2 (stereo unspecified): 11.5
Cn1c(CN2CCN(CC3CC3)CC2)nnc1C1CCC1: -26.7
CCN1CCC(NC(=O)CN2CCCC2Cn2nc(C)cc2C)CC1 (stereo unspecified): -6.83
c1ccc(-c2nc(CN3CCn4c(nnc4C4CC4)C3)cs2)cc1: -3.92
Cc1nc(CN2CCO[C@H]3CN(C(=O)c4cscn4)C[C@H]32)cs1: -128
CNc1cncc(C2CCCN2C(=O)c2ccc3c(c2)OCCO3)n1 (stereo unspecified): -2.97
c1cc2c(cc1-c1noc3c1CN(C1CCSC1)CC3)OCO2 (stereo unspecified): -16.9
Cc1nc(N2CCN(C(=O)C3CC3)CC2)c2c(n1)c(C)nn2C: 5.42
O=C(NCCn1ccnc1)c1cccc(Br)c1: 9.3
Cc1cnn(CC2CN(Cc3csc(C4CCCC4)n3)CCO2)c1 (stereo unspecified): -5.47
Cc1ccc(CCNC(=O)NCc2cccc(OC(F)F)c2)cn1: -2.66
COCC(C)(O)CNC(=O)c1cc(-c2ccc(F)cc2)nn1C (stereo unspecified): -5.1
CC(=O)Nc1cnc(Oc2ccccc2F)nc1: -4.23
COc1ccccc1CC(C)CC(=O)N(C)Cc1cc(C)on1 (stereo unspecified): 3.8
CCN1CC[C@@]2(C(=O)N(C)C)CCN(C(=O)Cc3ccccc3)CC[C@@H]12: 4.65
CC(=O)NC1CCCN(C(=O)NCc2ccc(-c3ccn[nH]3)cc2)C1 (stereo unspecified): -7.84
O=C1COC2(COCCN(Cc3ccsc3)C2)CN1c1ccoc1 (stereo unspecified): -73.5
Cc1ccccc1OCC(O)CN1CCC(Cn2cccn2)CC1 (stereo unspecified): -0.972
Cc1nc(-c2ccccc2)sc1CSCCS(C)(=O)=O: 3.85
Cn1ccnc1CNC1CCCOc2c1ccc1ccccc21 (stereo unspecified): 13.3
Cc1nn(C)c2c(N3CCN(C(=O)C4CC4)CC3)ncnc12: 9.02
CC(C)NC(=O)C1CCc2nnc(CNC(=O)c3cccnc3)n21 (stereo unspecified): 6.94
COCCN1CCC12CCN(c1ncccn1)C2 (stereo unspecified): 9.76
NC(=O)C1CCN(C(=O)c2cccc(OCc3cscn3)c2)CC1: -15.5
CC(C)CNC(=O)c1ccc2c(=O)n(-c3ccccc3)cnc2c1: -5.52
CCn1cnnc1C1CCN(C(=O)c2cccc(C)c2C)CC1: -3.61
c1nc2n(n1)CC(NCc1csc(-c3ccsc3)n1)CC2 (stereo unspecified): 3.79
O=C(N[C@@H]1CN(c2ncccn2)[C@@H]2CCCO[C@@H]21)c1cnccn1: -4.8
Cc1ccc(-c2nc3cc(S(=O)(=O)N4CCCC4)ccc3n2C)o1: 1.38
OC(CN1CCCCCCC1)c1ccc(F)cc1 (stereo unspecified): -10.4
COc1ccc(CNCC2CN(C3CC3)CCO2)cc1OC (stereo unspecified): -17
Cc1cnc(N2CCN(C)CC2)nc1-c1ccnn1C: 6.3
CCCN1CCc2[nH]cnc2C12CCN(C(=O)Cn1ccnc1C)CC2: 13.7
Cc1cc(C)n(C2CCCN(C(=O)CCc3nccs3)C2)n1 (stereo unspecified): -28.1
c1cnnc(N[C@@H]2CC[C@@H]3CN(Cc4ccc5cc[nH]c5c4)C[C@@H]32)c1: -0.423
O=C(C[S+]([O-])Cc1csc(C2CCCC2)n1)NC1CCCC1 (stereo unspecified): -38.2
CC(CN1CCC2(CC1)N=C(N(C)C)NC2=O)c1ccccc1 (stereo unspecified): 2.92
O=c1ncn(-c2cccc(F)c2)c2ncccc12: 4.19
